Origin of measurements: PubChem BioAssay AID1851

biological target: Cytochrome P450 3A4 (Homo sapiens) (UniProt P08684); experiment: Cytochrome panel assay with activity outcomes; details: recombinant CYP, pro-luciferin dealkylation, luminescence, p450-cyp3a4; series mostly up to 57.1 µM
Sequence (P08684 whole entry, looked up): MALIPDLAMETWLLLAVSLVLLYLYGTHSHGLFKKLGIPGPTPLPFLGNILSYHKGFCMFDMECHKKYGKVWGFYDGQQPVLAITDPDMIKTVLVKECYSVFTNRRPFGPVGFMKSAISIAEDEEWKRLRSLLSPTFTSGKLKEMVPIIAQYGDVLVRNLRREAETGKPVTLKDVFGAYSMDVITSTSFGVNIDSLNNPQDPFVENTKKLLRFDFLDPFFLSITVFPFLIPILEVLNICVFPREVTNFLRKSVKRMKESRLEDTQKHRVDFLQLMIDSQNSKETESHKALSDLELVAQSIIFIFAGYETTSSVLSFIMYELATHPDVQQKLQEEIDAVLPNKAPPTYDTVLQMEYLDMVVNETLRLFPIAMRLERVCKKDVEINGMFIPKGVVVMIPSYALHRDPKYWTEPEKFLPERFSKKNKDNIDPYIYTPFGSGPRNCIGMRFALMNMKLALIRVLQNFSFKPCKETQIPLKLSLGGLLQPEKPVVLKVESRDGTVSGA
Out of some 16,000 compounds screened, about 5,100 (32%) were called active. Not shown: some 25% with an inconclusive outcome. Calls come from the whole dose curve; as a rule, active = well fitted curve in the direction sought with a large enough effect; inconclusive = small, poorly fitted or top-dose-only effect, or effect the other way; inactive = no such curve, though single readings can be large or run the other way. The list shows a part of the results.
// allowed return values: T = active, F = inactive

Illustrative cases are given below, each with its answer.
[
  {
    "COMPOUND": "CN(C)S(=O)(=O)Oc1cccc(C(=O)Nc2ccc(Cl)c(Cl)c2)c1",
    "STUDY_SYSTEM": "Cytochrome P450 3A4 (Homo sapiens) (UniProt P08684)",
    "ASSIGNED_CLASS": "T"
  },
  {
    "COMPOUND": "Cc1ccc(Sc2ccc(NC(=O)c3ccc(S(C)(=O)=O)cc3Cl)cc2)cc1",
    "STUDY_SYSTEM": "Cytochrome P450 3A4 (Homo sapiens) (UniProt P08684)",
    "ASSIGNED_CLASS": "F"
  },
  {
    "COMPOUND": "Cc1nn(C)cc1CNC(=O)CCC(=O)O",
    "STUDY_SYSTEM": "Cytochrome P450 3A4 (Homo sapiens) (UniProt P08684)",
    "ASSIGNED_CLASS": "F"
  }
]

Inquiry: For this compound, state the assay outcome: COc1ccc(-c2nc3cnc(N4CCN(C)CC4)nc3n(C3CC3)c2=O)cc1
Reply text: F

Inquiry: For this compound, state the assay outcome: NCCCCCc1nnc(SCc2ccc(Cl)cc2Cl)o1
Reply text: T

Inquiry: For this compound, state the assay outcome: Cc1cc(N)n(-c2ccccc2)n1
Reply text: F

Inquiry: For this compound, state the assay outcome: Cc1sc2nc(SCC(=O)C(C)(C)C)n(Cc3ccco3)c(=O)c2c1C
Reply text: T

Inquiry: For this compound, state the assay outcome: Cc1sc(NC(=O)/C=C/c2ccc(C(C)C)cc2)c(C#N)c1C
Reply text: F

Inquiry: For this compound, state the assay outcome: Cc1ccc(-c2ccc(/C=N/NC(=S)Nc3ccccc3)o2)cc1[N+](=O)[O-]
Reply text: T

Inquiry: For this compound, state the assay outcome: Cc1cc(N)n(-c2ccc3ccccc3c2)n1
Reply text: T

Inquiry: For this compound, state the assay outcome: N[C@](CC1c2ccccc2Oc2ccccc21)(C(=O)O)[C@@H]1C[C@@H]1C(=O)O
Reply text: F

Inquiry: For this compound, state the assay outcome: O=C(c1ccccc1)c1ccc2n1CC[C@H]2C(=O)O
Reply text: F

---

target: Cytochrome P450 3A4 (Homo sapiens) (UniProt P08684); test: Cytochrome panel assay with activity outcomes; details: recombinant CYP, pro-luciferin dealkylation, luminescence, p450-cyp3a4; series mostly up to 57.1 µM
The campaign covered roughly 16,000 compounds. About 5,100 (32%) were called active. Inconclusive results (about 25%) are left out. Calls come from the whole dose curve; as a rule, active = well fitted curve in the direction sought with a large enough effect; inconclusive = small, poorly fitted or top-dose-only effect, or effect the other way; inactive = no such curve, though single readings can be large or run the other way. The list shows a part of the results.
// allowed return values: yes = active, no = inactive

Illustrative cases are given below, each with its answer.
[
  {
    "TEST_SMILES": "Cc1cccn2c(=O)c(/C=N/O)c(N3CCCC3)nc12",
    "STUDY_SYSTEM": "Cytochrome P450 3A4 (Homo sapiens) (UniProt P08684)",
    "ASSIGNED_CLASS": "yes"
  },
  {
    "TEST_SMILES": "COc1ccccc1N1CCN(Cc2cc(=O)n3ccsc3n2)CC1",
    "STUDY_SYSTEM": "Cytochrome P450 3A4 (Homo sapiens) (UniProt P08684)",
    "ASSIGNED_CLASS": "no"
  },
  {
    "TEST_SMILES": "CN[C@@H]1[C@H](O[C@H]2[C@@H](O[C@@H]3[C@@H](O)[C@@H](O)[C@@H](N=C(N)N)[C@@H](O)[C@@H]3N=C(N)N)O[C@@H](C)[C@]2(O)CO)O[C@H](CO)[C@@H](O)[C@@H]1O",
    "STUDY_SYSTEM": "Cytochrome P450 3A4 (Homo sapiens) (UniProt P08684)",
    "ASSIGNED_CLASS": "no"
  },
  {
    "TEST_SMILES": "COc1ccccc1N1CCN(c2nc3c(C)cccn3c(=O)c2C=O)CC1",
    "STUDY_SYSTEM": "Cytochrome P450 3A4 (Homo sapiens) (UniProt P08684)",
    "ASSIGNED_CLASS": "yes"
  }
]

Now let's try a different one.
Inquiry: For this compound, state the assay outcome: Cc1cccn2c(=O)c(C=NCc3ccco3)c(Nc3ccc(SC(F)F)cc3)nc12
Reply text: no

---

molecular target: Cytochrome P450 3A4 (Homo sapiens) (UniProt P08684); assay: Cytochrome panel assay with activity outcomes; conditions: recombinant CYP, pro-luciferin dealkylation, luminescence, p450-cyp3a4; series mostly up to 57.1 µM
The campaign covered roughly 16,000 compounds. About 5,100 (32%) were called active. Inconclusive results (about 25%) are left out. Calls follow the shape of the dose curve; as a rule, active = well fitted curve in the direction sought with a large enough effect; inconclusive = small, poorly fitted or top-dose-only effect, or effect the other way; inactive = no such curve, though single readings can be large or run the other way. The list shows a part of the results.
// allowed return values: t = active, f = inactive

[
  {
    "COMPOUND": "CC1(C)CC(O)CC(C)(C)N1CC(O)COCCOc1ccc(Br)cc1 (stereo unspecified)",
    "ASSIGNED_CLASS": "f"
  }
]

Inquiry: For this compound, state the assay outcome: CCCCCCCCCCCCC/C=C\[C@@H](O)[C@@H](N)CO
Reply text: f

Inquiry: For this compound, state the assay outcome: C=CCNC(=O)c1ccccc1Cl
Reply text: f

Inquiry: For this compound, state the assay outcome: N[C@H](CCCC(=O)O)C(=O)O
Reply text: f

Inquiry: For this compound, state the assay outcome: O=C1/C(=C/c2cccnc2)SC(=S)N1Cc1ccco1
Reply text: t

Inquiry: For this compound, state the assay outcome: O=C(CCN1C(=O)/C(=C/c2cccc(Br)c2)SC1=S)NNC(=O)c1cccnc1
Reply text: t

---

biological target: Cytochrome P450 3A4 (Homo sapiens); test: Cytochrome panel assay with activity outcomes; conditions: recombinant CYP, pro-luciferin dealkylation, luminescence, p450-cyp3a4; series mostly up to 57.1 µM
Screen size: about 16,000 compounds; about 5,100 (32%) were called active. Another 25% or so got no clear call; they are omitted. Calls follow the shape of the dose curve; as a rule, active = well fitted curve in the direction sought with a large enough effect; inconclusive = small, poorly fitted or top-dose-only effect, or effect the other way; inactive = no such curve, though single readings can be large or run the other way. The list shows a part of the results.
// allowed return values: Yes for active, No for inactive

Illustrative cases are given below, each with its answer.
[
  {
    "COMPOUND": "Cc1ccc(/C=N\\Nc2nc3ccc(Cl)cc3[nH]2)o1",
    "ASSIGNED_CLASS": "Yes"
  },
  {
    "COMPOUND": "CC(=O)Nc1ccc(S(=O)(=O)N2CCN(c3nc(NC4CCCC4)c4ccccc4n3)CC2)cc1",
    "ASSIGNED_CLASS": "Yes"
  },
  {
    "COMPOUND": "CCOc1ccc(-c2c[n+](=O)c3c(n2[O-])CCCC3)c(OCC)c1",
    "ASSIGNED_CLASS": "No"
  },
  {
    "COMPOUND": "CCOC(=O)N/N=C/c1ccc(C)o1",
    "ASSIGNED_CLASS": "No"
  }
]

Inquiry: For this compound, state the assay outcome: Cc1ccc2cc(C(=O)O)c(C)nc2c1
Reply text: No

Inquiry: For this compound, state the assay outcome: COc1ccc(/C(C)=N/NC(=O)c2ccc(CSc3cccc4cccnc34)cc2)cc1OC
Reply text: Yes

Inquiry: For this compound, state the assay outcome: Cc1cnn(-c2cc(N/N=C/c3ccccc3)ncn2)c1
Reply text: No

---

Biological target: Cytochrome P450 3A4 (Homo sapiens) (UniProt P08684)
Assay: Cytochrome panel assay with activity outcomes
Settings: recombinant CYP, pro-luciferin dealkylation, luminescence, p450-cyp3a4; series mostly up to 57.1 µM
Experimental: The P450 gene superfamily is involved in the metabolism and clearance of xenobiotics. This assay used various human CYP P450 isozymes to measure the dealkylation of various pro-luciferin substrates to luciferin. The luciferin is then measured by luminescence after the addition of a luciferase detection reagent. […] Inhibitors and some substrates limit the production of luciferin, and decrease measured luminescence. […] 8, Detection, 1 sec, ViewLux luminescent read […]
Among all 16,000 compounds or so, about 5,100 (32%) were called active. Not shown: some 25% with an inconclusive outcome. Calls come from the whole dose curve; as a rule, active = well fitted curve in the direction sought with a large enough effect; inconclusive = small, poorly fitted or top-dose-only effect, or effect the other way; inactive = no such curve, though single readings can be large or run the other way. The list shows a part of the results.
// allowed return values: yes (active), no (inactive)

[
  {
    "MOLECULE": "COc1ccc(C(C(=O)NCc2ccccc2)N(Cc2cccs2)C(=O)c2cnccn2)cc1 (stereo not given)",
    "ASSIGNED_CLASS": "yes"
  },
  {
    "MOLECULE": "CC1=NN(c2ccc(C)cc2C)C(=O)C1C(c1ccccc1)C1C(=O)N(c2ccc(C)cc2C)N=C1C (stereo not given)",
    "ASSIGNED_CLASS": "yes"
  },
  {
    "MOLECULE": "CC(=O)c1cccc(NC(=O)Cc2ccc3c(c2)CCCC3)c1",
    "ASSIGNED_CLASS": "no"
  }
]

Inquiry: For this molecule, state the assay outcome: Cc1ccc(OCC(=O)Nn2cnc3ccccc32)cc1
Reply text: yes

Inquiry: For this molecule, state the assay outcome: O=c1ccc(NS(=O)(=O)c2ccc(Cl)cc2)cn1Cc1ccc(Cl)c(Cl)c1
Reply text: yes

Inquiry: For this molecule, state the assay outcome: O=c1c([N+](=O)[O-])cc(C(F)(F)F)cn1Cc1c(Cl)cccc1Cl
Reply text: yes
